# Target System: monkey GPC3-His protein (monkey)
# Experimental Protocol: ELISA, monkey GPC3-His coated; antibody 0.02 nM
Quantity: OD450 nm
// return a plain number; no unit text

Examples with answers:
hAb005LH3L1b (antibody, human IgG1, V domains shown) VH: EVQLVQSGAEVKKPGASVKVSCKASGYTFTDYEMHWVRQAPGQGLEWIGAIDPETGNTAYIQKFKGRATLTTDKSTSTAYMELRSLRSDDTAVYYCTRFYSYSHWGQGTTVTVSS VL: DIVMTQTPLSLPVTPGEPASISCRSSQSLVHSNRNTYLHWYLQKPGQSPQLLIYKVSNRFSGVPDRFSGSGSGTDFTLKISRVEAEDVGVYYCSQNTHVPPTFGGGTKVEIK
0.663
hAb007LH1L1 (antibody, human IgG1, V domains shown) VH: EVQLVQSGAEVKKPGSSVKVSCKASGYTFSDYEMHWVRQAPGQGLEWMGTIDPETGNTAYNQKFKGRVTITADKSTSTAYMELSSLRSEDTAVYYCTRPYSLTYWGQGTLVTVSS VL: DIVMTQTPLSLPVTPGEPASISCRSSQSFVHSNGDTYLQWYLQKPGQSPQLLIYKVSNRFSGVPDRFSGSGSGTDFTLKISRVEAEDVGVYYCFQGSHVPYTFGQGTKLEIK
0.491

Then there is this binder:
Recorded OD450 nm of hAb005LH3L1 (antibody, human IgG1, V domains shown) VH: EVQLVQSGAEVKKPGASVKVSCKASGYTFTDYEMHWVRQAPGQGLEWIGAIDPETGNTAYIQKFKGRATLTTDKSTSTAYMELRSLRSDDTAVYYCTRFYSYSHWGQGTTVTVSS VL: DIVMTQTPLSLPVTPGEPASISCRSSQSLVHSNGNTYLHWYLQKPGQSPQLLIYKVSNRFSGVPDRFSGSGSGTDFTLKISRVEAEDVGVYYCSQNTHVPPTFGGGTKVEIK , please. 0.609
